Where do the numbers come from? From PubChem BioAssay (NCI).

Please respond with reported TGI for every item in the list.
Test system: CAKI-1 renal
Assay: NCI tumour cell line growth inhibition, 48 h
All answers are understood in µM, so give the number only.

Reported TGI for CAKI-1 renal, given `O=C(O)CSc1cc(NS(=O)(=O)c2ccc(Br)cc2)c2ccccc2c1O` ?
29.4

What do you get for `CCOC(=O)C#Cc1c(C(=O)OCC)nnn1[C@@H]1O[C@H](COC)[C@@H](OC)[C@H]1OC` ?
3.14

What do you get for `COc1ccccc1CNCCCN1C(=O)c2ccc3c4c(ccc(c24)C1=O)C(=O)N(CCCNCc1ccccc1OC)C3=O` ?
0.725

What do you get for `CN(c1ccccc1)c1c2ccccc2nc2[nH]c3ccccc3c12` ?
5.92

What do you get for `COc1cc(/C=C/c2cc(/C=C/c3ccc(O)c(OC)c3)n(C(=O)Nc3ccc(C)cc3)n2)ccc1O` ?
6.95

----------
System: HT29 colon
Assay: NCI tumour cell line growth inhibition, 48 h
assay_metric: GI50

// query GI50 value for entry `FC(F)(F)c1cccc(CNC2CCN(CCc3ccccc3)CC2)c1`
13.5 µM

What do you get for `COc1cc(/C=C/c2cc(/C=C/c3ccc(O)c(OC)c3)n(C(=O)Nc3ccc(C)cc3)n2)ccc1O` ?
1.93 µM

What do you get for `COc1cc(/C=C/C(=O)c2nc3cc(F)ccc3nc2C)cc(OC)c1OC` ?
3.75 µM

What do you get for `O=C(O)CSc1cc(NS(=O)(=O)c2ccc(Br)cc2)c2ccccc2c1O` ?
18.1 µM

What do you get for `CC(=O)O[C@H]1C[C@@H]2[C@@]3(C)CC[C@H]4C[C@@]4(C)[C@@H]3CC[C@@]2(C)C2=CCC3=C(COC3=O)[C@]21C` ?
31.6 µM

What do you get for CN(C)CCCC1(c2ccc(F)cc2)OCc2cc(-c3csc4ccccc34)ccc21 (centres undefined) ?
1.55 µM

What do you get for `Nc1cc(C(F)(F)F)c(-c2nc(N3CCOCC3)nc(N3CCOCC3)n2)cn1` ?
0.214 µM

What do you get for `CNCc1cccc2c1OCCOCCOCCNS(=O)(=O)c1ccc(cc1)-c1cnc(N)c(n1)C(=O)N2` ?
1.31 µM

What do you get for `OC[C@H]1C[C@](O)(c2ccc(F)cc2)[C@@H](c2ccc(F)cc2)O1` ?
> 100 µM

----------
Please respond with reported TGI for every item in the list.
System: RPMI-8226 leukemia
Test: NCI tumour cell line growth inhibition, 48 h

// query TGI value for entry `CC(C)(C)c1ccc(OCCOCCOc2ccc(C(C)(C)C)cc2S(N)(=O)=O)c(S(N)(=O)=O)c1`
> 100 µM

What do you get for `COC(=O)[C@@H]1Cc2ccc(OC)c(c2)OCCC(=O)N1` ?
> 100 µM

What do you get for `COc1ccccc1CNCCCN1C(=O)c2ccc3c4c(ccc(c24)C1=O)C(=O)N(CCCNCc1ccccc1OC)C3=O` ?
0.799 µM

What do you get for `COc1ccc([C@@H]2[C@@H](Oc3ccccc3)C(=O)N2c2cc(OC)c(OC)c(OC)c2)cc1F` ?
5.64 µM

What do you get for `CCCN1C(=O)CN(S(=O)(=O)c2ccc(Cl)cc2)C1=O` ?
> 100 µM

What do you get for `COC(=O)c1sc(=S)sc1SCc1cccc(CSc2sc(=S)sc2C(=O)OC)c1` ?
> 100 µM

What do you get for `Nc1ccc2c(=S)c3ccccc3[nH]c2c1` ?
> 100 µM

What do you get for O=C(CC1(O)C(=O)Nc2c(Cl)cc(Cl)cc21)c1cccc([N+](=O)[O-])c1 (centres undefined) ?
58.2 µM

What do you get for `O=[N+]([O-])c1ccc2c3c1[C@@H]1O[C@@H]1c1cccc(c1-3)[C@@H]1O[C@H]21` ?
> 100 µM

----------
Please respond with reported GI50 for every item in the list.
System: OVCAR-3 ovarian
Assay: NCI tumour cell line growth inhibition, 48 h

// query GI50 value for entry `Cn1cc(-c2ccc3c(c2)ncn3-c2cc(NS(=O)(=O)C3CC3)cc(-c3ccc(F)cc3F)c2)cn1`
14.5 µM

What do you get for `COc1cc(NC(=O)COc2ccccc2)c(C(N)=O)cc1OC` ?
0.472 µM

What do you get for `O=C1[C@H](Cc2ccc(O)cc2)N2C(=O)CCN(C(=O)NCc3ccccc3)[C@H]2CN1Cc1cccc2ccccc12` ?
1.71 µM

What do you get for N#CC1=C(N)Oc2c(ccc3ccccc23)C1c1cc2ccccc2n2nnnc12 (stereo not given) ?
0.44 µM

What do you get for `CC(=O)O[C@H]1C[C@@H]2[C@@]3(C)CC[C@H]4C[C@@]4(C)[C@@H]3CC[C@@]2(C)C2=CCC3=C(COC3=O)[C@]21C` ?
10.1 µM

----------
Please respond with reported TGI for every item in the list.
System: U251 CNS
Assay: NCI tumour cell line growth inhibition, 48 h

// query TGI value for entry COC(=O)C1CC(=O)O[C@H]1c1ccc(OC)c(OC)c1 (stereo not given in full)
> 100 µM

What do you get for `O=[N+]([O-])c1ccc(N/N=C\c2cc(Br)ccc2O)nc1` ?
3.24 µM

What do you get for `COc1ccc(OC/C(N)=N/NC(=O)c2ccncc2)cc1` ?
> 100 µM

What do you get for `COc1cc(CCN)c(OC)c(OC)c1` ?
> 100 µM

What do you get for `NS(=O)(=O)c1cc2c(cc1Cl)NCNS2(=O)=O` ?
> 100 µM

What do you get for `CC(C)C(=O)Cc1ccc2ccccc2n1` ?
> 100 µM

What do you get for `CN(Cc1cccc2ccsc12)/N=C\c1ccc(Cl)cc1` ?
> 100 µM

What do you get for NC1=C(c2nc(-c3ccccc3)cs2)C(c2ccco2)c2c(c3ccccc3oc2=O)O1 (stereo not given) ?
> 100 µM

What do you get for `O=[N+]([O-])c1ccc2c3c1[C@@H]1O[C@@H]1c1cccc(c1-3)[C@@H]1O[C@H]21` ?
11.8 µM

What do you get for `CN(C)[C@@H]1C(=O)C(C(=O)NCc2nc3[nH]cnc(=S)c3[nH]2)=C(O)[C@@]2(O)C(=O)C3=C(O)c4c(O)cccc4[C@@](C)(O)[C@H]3C[C@@H]12` ?
> 100 µM

----------
Please respond with reported GI50 for every item in the list.
Test system: SK-MEL-2 melanoma
Assay: NCI tumour cell line growth inhibition, 48 h

// query GI50 value for entry `Nc1cc(C(F)(F)F)c(-c2nc(N3CCOCC3)nc(N3CCOCC3)n2)cn1`
618 nM

What do you get for `CC[C@]12C=CCN3CC[C@@]4(c5ccc(OC)cc5N(C)[C@H]4[C@@](O)(C(=O)OC)[C@@H]1OC(=O)CCCN1CCN(CCCC(=O)O[C@@H]4[C@]5(CC)C=CCN6CC[C@@]7(c8ccc(OC)cc8N(C)[C@H]7[C@@]4(O)C(=O)OC)[C@@H]65)CC1)[C@@H]32` ?
1880 nM

What do you get for `COc1cc(/C=C/C(=O)c2nc3cc(F)ccc3nc2C)cc(OC)c1OC` ?
34500 nM

----------
Please respond with reported TGI for every item in the list.
System: OVCAR-4 ovarian
Experiment: NCI tumour cell line growth inhibition, 48 h

// query TGI value for entry `O=C(/C=C/c1ccccc1)CCN1CCCCC1`
> 100 µM

What do you get for `CN(c1ccccc1)c1c2ccccc2nc2[nH]c3ccccc3c12` ?
> 48.7 µM

What do you get for `O=C1c2ccccc2N1C(=O)c1ccccc1[N+](=O)[O-]` ?
> 100 µM

What do you get for `O=C(c1c(F)c(F)c(F)c(F)c1F)n1c(=S)n(C(=O)c2c(F)c(F)c(F)c(F)c2F)c2ccccc21` ?
> 100 µM

What do you get for `O=C(O)CSc1cc(NS(=O)(=O)c2ccc(Br)cc2)c2ccccc2c1O` ?
3.05 µM

----------
Tested on: UO-31 renal
Test: NCI tumour cell line growth inhibition, 48 h
assay_metric: TGI

// query TGI value for entry `CN(Cc1cccc2ccsc12)/N=C\c1ccc(Cl)cc1`
> 100 µM

What do you get for `CC[C@@H]1CC[C@@H]2[C@H](CC[C@]3(C)[C@@H](O[N+](=O)[O-])CC[C@@H]23)[C@H]1C(C)=O` ?
> 100 µM

What do you get for `O=C1c2ccccc2-c2c1c1c(O)cccc1n2Cc1ccccc1` ?
> 100 µM

----------
System: XF 498 CNS
Assay: NCI tumour cell line growth inhibition, 48 h
assay_metric: TGI

// query TGI value for entry `C=C(C)c1nc(Oc2ccccc2)nc(Oc2ccccc2)n1`
13 µM

What do you get for `O=S1(=O)C(=C(c2ccccc2)c2ccccc2)S(=O)(=O)c2ccccc21` ?
62.4 µM

What do you get for C/C=C1/C=CC2c3[nH]c4ccccc4c3CCN2C1 (stereo not drawn) ?
> 400 µM

What do you get for CCOc1ccc(OP2(=O)NC(=O)C=C(C)N2)cc1 (stereo not drawn) ?
> 100 µM

What do you get for `COC(=O)N/N=c1\cc(C(=O)Nc2ccc(C)c(C)c2)oc2cc(O)ccc12` ?
> 100 µM

What do you get for `N#CC1(CCCCl)CCCCC1` ?
> 100 µM

What do you get for ON1CCc2c([nH]c3ccccc23)C1c1ccc(Cl)cc1 (stereo not drawn) ?
57.6 µM

What do you get for COC(=O)C1CC(=O)O[C@H]1c1ccc(OC)c(OC)c1 (stereo partly drawn) ?
> 100 µM

What do you get for C/C(=C\c1ccccc1)C(O)C(=O)c1nc2ccc(Cl)cc2[nH]c1=O (stereo not drawn) ?
> 100 µM

What do you get for CCOC(=O)C1(C)CCC(C(=O)OC)C1=O (stereo not drawn) ?
> 100 µM

What do you get for `COc1cc(Nc2nc3cc(C)ccc3nc2-c2ccccc2)cc(OC)c1OC` ?
42.1 µM

What do you get for CC(C)(C)C1CC[C@H]2c3c([nH]c4ccccc34)[C@H]3C(=O)N(c4ccc(F)cc4)C(=O)[C@H]3[C@H]2C1 (stereo partly drawn) ?
32.3 µM

What do you get for `O=[N+]([O-])c1ccc(/C=C/c2ccc(/C=C/c3ccc([N+](=O)[O-])cc3[N+](=O)[O-])cc2)c([N+](=O)[O-])c1` ?
> 100 µM
